target.of.assay: T1, cynomolgus (Macaca fascicularis) LRRC15 extracellular domain with C-terminal His tag (cynomolgus monkey (Macaca fascicularis), UniProt Q8TF66 22-538 (human entry))
T1 construct: Recombinant, made in HEK293; the entry holds the extracellular domain and the His tag; SPR analyte; also called TPP-9046
T1 chain: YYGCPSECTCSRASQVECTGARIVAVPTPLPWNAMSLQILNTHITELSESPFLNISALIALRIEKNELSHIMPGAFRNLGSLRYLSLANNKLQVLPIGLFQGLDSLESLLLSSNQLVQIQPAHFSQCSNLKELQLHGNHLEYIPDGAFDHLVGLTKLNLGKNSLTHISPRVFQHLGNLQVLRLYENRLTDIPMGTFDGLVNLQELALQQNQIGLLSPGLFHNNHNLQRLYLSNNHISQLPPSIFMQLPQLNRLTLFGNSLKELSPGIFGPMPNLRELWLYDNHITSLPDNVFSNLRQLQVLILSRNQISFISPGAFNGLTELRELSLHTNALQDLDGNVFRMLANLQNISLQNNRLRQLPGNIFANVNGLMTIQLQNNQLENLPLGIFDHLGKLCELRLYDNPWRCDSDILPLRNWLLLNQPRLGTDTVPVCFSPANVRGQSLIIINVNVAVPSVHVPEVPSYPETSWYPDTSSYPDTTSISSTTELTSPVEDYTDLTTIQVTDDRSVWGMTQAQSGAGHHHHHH
assay.text: SPR (Example 6), overview table, repeats Table 9; head prints [M^-1]
Method: To assess the binding kinetics and affinity of anti-LRRC15 antibodies as well as their species cross-reactivity profile, binding assays were conducted using surface plasmon resonance (SPR). Binding assays were performed on a Biacore T200 instrument at 25° C. using assay buffer HBS EP+, 1 mg/ml BSA, 300 mM NaCl, 0.05% NaN3. […]
pKd: −log10 of the molar value.
pKd vs 9: at or above is 1, below is -1.

Examples with answers:
TPP-12942 (antibody, human IgG1, kappa, V domains shown, Prior art humanized IgG1 kappa antibody, used as comparator; also called huM25; huM25-hIgG1Kappa) VH: EVQLVQSGAEVKKPGASVKVSCKASGYKFSSYWIEWVKQAPGQGLEWIGEILPGSDTTNYNEKFKDRATFTSDTSINTAYMELSRLRSDDTAVYYCARDRGNYRAWFGYWGQGTLVTVSS VL: DIQMTQSPSSLSASVGDRVTITCRASQDISNYLNWYQQKPGGAVKFLIYYTSRLHSGVPSRFSGSGSGTDYTLTISSLQPEDFATYFCQQGEALPWTFGGGTKVEIKR ... -1
TPP-14392 (antibody, human IgG1, kappa, V domains shown, also called 13612-rec05-hIgG1Kappa) VH: EVQLLESGGGLVQPGGSLRLSCAASGFTFSGYMMSWVRQAPGKGLEWVSGIYPSPGYTYYADSVKGRFTISRDNSKNTLYLQMNSLRAEDTAVYYCAREKASDLSGSYSEALDYWGQGTLVTVSS VL: DIQMTQSPDSLSASVGDRVTITCRASQDVGSWLAWYQQKPGKAPKLLIFAASYLESGIPSRFSGSGSGTDFTLTISSLQPEDFATYYCQQANGFPLTFGGGTKVEIKR ... -1
TPP-17419 (antibody, human IgG1, kappa, V domains shown, also called 438H-M307-H07-hIgG1Kappa) VH: EVQLVQSGAEVKKPGASVKVSCKASGYKFSSYWIEWVKQAPGQGLEWIGEILPGSDWTNYNEKFKDRATFTSDTSINTAYMELSRLRSDDTAVYYCARDRGNYRAWFQYWGQGTLVTVSS VL: DIQMTQSPSSLSASVGDRVTITCRISQSISSYLNWYQQKPGGAPKFLIYYASSLQSGVPSRFSGSGSGTDYTLTISSLQPEDFATYYCQQGLRLPWTFGGGTKVEIKR ... -1
TPP-1633 (antibody, human IgG1, kappa, V domains shown, also called 060E-M016-G14-hIgG1) VH: EVQLLESGGGLVQPGGSLRLSCAASGFTFSGYMMQWVRQAPGKGLEWVSGIYPSGGYTNYADSVKGRFTISRDNSKNTLYLQMNSLRAEDTATYYCAREKASDLSGSYSEALDYWGQGTLVTVSS VL: DIQMTQSPDSLSASVGDRVTITCRASQDVGSWLAWYQQKPGKAPKLLIFAASSLESGIPSRFSGSGSGTDFTLTISSLQPEDFATYYCQQANGFPLTFGGGTKVEIKR ... -1
TPP-14389 (antibody, human IgG1, kappa, V domains shown, also called 13612-rec02-hIgG1Kappa) VH: EVQLLESGGGLVQPGGSLRLSCAASGFTFSGYMMSWVRQAPGKGLEWVSGIYPSPGYTYYADSVKGRFTISRDNSKNTLYLQMNSLRAEDTAVYYCAREKASDLFGSYSEALDYWGQGTLVTVSS VL: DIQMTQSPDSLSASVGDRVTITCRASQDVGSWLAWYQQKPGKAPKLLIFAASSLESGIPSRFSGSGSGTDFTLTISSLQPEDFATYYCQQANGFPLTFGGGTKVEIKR ... -1

Next:
Asked: State whether the measured pKd reaches 9, counting equality as reaching it, for TPP-17073 (antibody, human IgG1, kappa, V domains shown, also called 438H-M113-N15-hIgG1) VH: EVQLLESGGGLVQPGGSLRLSCAASGFTFSGYMMSWVRQAPGKGLEWVSGIYPSAGYTLYADSVKGRFTISRDNSKNTLYLQMNSLRAEDTAVYYCAREKAADLFGSYSEALDYWGQGTLVTVSS VL: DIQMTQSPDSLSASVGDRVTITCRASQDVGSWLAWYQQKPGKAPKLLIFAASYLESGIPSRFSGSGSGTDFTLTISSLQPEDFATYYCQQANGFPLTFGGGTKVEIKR
Given back: 1
